Data credit: PubChem BioAssay (Tox21)

- measurementDescription: qHTS assay for small molecule agonists of the p53 signaling pathway (AID 651631); further: nearly all actives have a fitted effect of over 15% in size
- conditionInfo: HCT-116 p53RE-bla reporter, beta-lactamase FRET ratio, 16 h; series mostly up to 73.3 µM
Inconclusive results are not listed. The source made the active and inactive calls. The call rests on the fitted dose curve.
Outcomes: YES (active), NO (inactive)

1. C[C@H](Cc1ccc(O)c(O)c1)[C@@H](C)Cc1ccc(O)c(O)c1 : NO
2. CS(=O)(=O)c1ccc([C@@H](O)[C@@H](COC(=O)CN)NC(=O)C(Cl)Cl)cc1 : NO
3. CSCCC(N)C(=O)O (stereo not given) : NO
4. COC(=O)[C@H]1[C@H]2C[C@H]3c4[nH]c5ccccc5c4CCN3C[C@H]2CC[C@@H]1O : NO
5. CCCCCCCCCCCCCCCC(=O)OC[C@H](COP(=O)([O-])OCC[N+](C)(C)C)OC(=O)CCCCCCCCCCCCCCC : NO
6. Cc1cc(Br)ccc1NC(=O)CCl : YES
7. N=C(N)c1ccc(/C=C/c2ccc(C(=N)N)cc2O)cc1 : NO
8. C[C@H](NCCc1ccc(O)cc1)[C@H](O)c1ccc(O)cc1 : NO
9. OCCCNc1ccccc1 : NO
10. CC(C)(C)C(=O)OCC(=O)[C@H]1CC[C@H]2[C@@H]3CCC4=CC(=O)CC[C@]4(C)[C@H]3CC[C@]12C : NO

---

- targetOfAssay: Aryl hydrocarbon receptor (Homo sapiens)
- measurementDescription: qHTS assay to identify small molecule that activate the aryl hydrocarbon receptor (AhR) signaling pathway (AID 743085); further: nearly all actives have a fitted effect of over 15% in size;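 on activation: HG2L7.5c1 human HepG2 liver cells with stably integrated DRE-driven firefly reporter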
- conditionInfo: HepG2 AhR-luc (HG2L7.5c1), luciferase, 24 h; series mostly up to 70.3 µM
Inconclusive results are not listed. Calls of active or inactive are those of the source. Calls follow the shape of the dose curve; as a rule, active = well fitted activation curve with a large enough effect in the repeat runs; inconclusive = weak or mixed curves; inactive = no such curve, though single readings can be large or run the other way. Residues, ends and D or L forms follow the SMILES beside them.
Outcomes: True (active), False (inactive)

1. CC1(C)S[C@@H]2[C@H](NC(=O)[C@H](N)c3ccc(O)cc3)C(=O)N2[C@H]1C(=O)O : False
2. CCCCCCCCCCCCCCCCCCOCC(COP(=O)([O-])OCC[N+](C)(C)C)OC (stereo not drawn) : False
3. Cc1cc(-c2ccc(N=Nc3ccc4c(S(=O)(=O)O)cc(S(=O)(=O)O)c(N)c4c3O)c(C)c2)ccc1N=Nc1ccc2c(S(=O)(=O)O)cc(S(=O)(=O)O)c(N)c2c1O : False
4. O=[N+]([O-])c1ccc(O)c2ncccc12 : True
5. CCc1ncnc2cc(OC)c(OC)cc12 : False
6. CC1=C(/C=C/C(C)=C/C=C/C(C)=C\C(=O)O)C(C)(C)CCC1 : False
7. CC(C)[C@H](NC(=O)[C@H](CC(=O)O)NC(=O)[C@H](CCCCN)NC(=O)[C@@H](N)CCCN=C(N)N)C(=O)N[C@@H](Cc1ccc(O)cc1)C(=O)O (H-RKDVY-OH) : False
8. CC(C)COC(=O)OCN1C(=O)CN(CCN2CC(=O)N(COC(=O)OCC(C)C)C(=O)C2)CC1=O : False

---

- measurementDescription: qHTS assay to identify small molecule antagonists of the vitamin D receptor (VDR) signaling pathway - cell viability counter screen (AID 743225); further: nearly all actives have a fitted effect of over 50% in size
- conditionInfo: VDR-bla HEK293T viability, CellTiter-Glo luminescence, 16 h; series mostly up to 61 µM
- Description: U.S. Tox21 Program National Center for Advancing Translational Sciences [NCATS] NIH Chemical Genomics Center [NCGC] U.S. Environmental Protection Agency [EPA] National Institutes of Environmental Health Sciences [NIEHS] National Toxicology Program [NTP] U.S. Food and Drug Administration [FDA] Tox21 Assay Overview: The vitamin D receptor (VDR), a member of nuclear hormone receptor superfamily, plays a critical role in calcium homeostasis and bone metabolism. […]
Records with an inconclusive call do not appear. Active and inactive are the calls of the source. The call rests on the fitted dose curve; in most records, active means well fitted cell-killing curve with a large enough effect in the repeat runs; inconclusive means weak or mixed curves, or effect the other way; inactive means no such curve, though single readings can be large or run the other way.
Outcomes: yes (active), no (inactive)

1) CCSCC : no
2) O=C1CCC/C=C\CCCCCCCCCC1 : no
3) COc1cc([C@@H]2c3cc4c(cc3[C@@H](O[C@@H]3O[C@@H]5CO[C@@H](C)O[C@H]5[C@H](O)[C@H]3O)[C@H]3COC(=O)[C@H]23)OCO4)cc(OC)c1O : no
4) CC(Cc1ccc(O)c(O)c1)C(C)Cc1ccc(O)c(O)c1 (centres undefined) : no
5) NCc1cccc(C2CCN(C(=O)c3ccc(C#Cc4ccccc4F)o3)CC2)c1 : yes
6) N#Cc1nc(Cl)c(Cl)c(Cl)c1Cl : yes
7) COc1cc(/C=C/C(=O)CC(=O)/C=C/c2ccc(O)c(OC)c2)ccc1O : yes
8) Cc1cc(F)ccc1-c1cc(N2CC[C@@H](O)[C@H]2CO)ncc1N(C)C(=O)C(C)(C)c1cc(C(F)(F)F)cc(C(F)(F)F)c1 : yes
9) CC(=O)[C@]1(O)Cc2c(O)c3c(c(O)c2[C@@H](O[C@H]2C[C@H](N)[C@H](O)[C@H](C)O2)C1)C(=O)c1ccccc1C3=O : no
